# test system: Heat shock factor protein 1 (Mus musculus)
# Sequence (P38532 whole entry): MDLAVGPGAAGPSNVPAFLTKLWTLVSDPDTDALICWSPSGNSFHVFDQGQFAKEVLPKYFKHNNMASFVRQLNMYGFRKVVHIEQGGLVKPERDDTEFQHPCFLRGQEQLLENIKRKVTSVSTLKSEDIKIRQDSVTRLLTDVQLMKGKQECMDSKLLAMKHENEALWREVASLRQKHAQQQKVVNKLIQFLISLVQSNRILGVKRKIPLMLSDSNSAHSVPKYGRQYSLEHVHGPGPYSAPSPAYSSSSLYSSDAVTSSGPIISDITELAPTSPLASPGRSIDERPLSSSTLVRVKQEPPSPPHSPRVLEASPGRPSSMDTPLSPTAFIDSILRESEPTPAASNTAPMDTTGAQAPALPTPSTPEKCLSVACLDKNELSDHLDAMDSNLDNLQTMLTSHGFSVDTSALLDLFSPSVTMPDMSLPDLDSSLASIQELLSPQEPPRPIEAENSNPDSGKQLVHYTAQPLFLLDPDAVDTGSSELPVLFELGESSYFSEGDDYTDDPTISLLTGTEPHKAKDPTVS
# protocol notes: HSF1 potentiators in luciferase reporter cells, confirmation, cell-based, NIH3T3, luminescence, dose retest (AID 435004);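 further: stress induced by proteasome inhibitor MG132 added 30 min after compound; luciferase reporter driven by HSF1 response element in NIH3T3 cells; actives raise luminescence as potentiators of the MG132 stress response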
# Assay type: functional
Calls of active or inactive are those of the source.
Outcomes: yes (1) = active, no (0) = inactive

molecule	label value
COc1ccc(C2CC3=Nc4ncnn4C(c4ccccc4)C3=C(O)C2)cc1 (stereo unspecified)	no (0)
CCCCOc1ccc(-c2nnc(-c3ccco3)o2)cc1	no (0)
O=C(NCCc1nc2ccccc2[nH]1)c1ccc(Cl)c([N+](=O)[O-])c1	no (0)
Clc1ccc(-c2nc(/C=N/N3CCOCC3)c3ccccn23)cc1	no (0)
COCCCNCCOc1ccc(C)cc1[N+](=O)[O-]	no (0)
CCN(/N=C/C=C/c1ccccc1)c1cc(=O)n(C)c(=O)[nH]1	no (0)
COc1ccc(C)cc1NC(=O)C/C(C)=N/NC(=O)Cc1cccc2ccccc12	no (0)
CCc1ccccc1NC(=O)COc1ccc2c(=O)c(Oc3cc(C)ccc3C)coc2c1	no (0)
CC1(C)CC(=O)C/C(=N/NC(=O)CCCOc2ccc(Cl)cc2Cl)C1	no (0)
Cc1cccc(CN(C(S)=Nc2c(C)cccc2C)c2cccnc2)c1	no (0)
CC(=O)c1ccc(NC(=O)CCCN2C(=O)/C(=C/C(C)=C/c3ccccc3)SC2=S)cc1	yes (1)
COc1ccccc1N1CCN(C(=O)c2ccc3c(=O)n(Cc4ccco4)c(=S)[nH]c3c2)CC1	no (0)
Cc1ccc(S(=O)(=O)n2cnc3ccccc32)cc1[N+](=O)[O-]	no (0)
CCOC(=O)C1=C(CN2CCc3ccccc32)NC(=O)NC1c1ccc(Cl)cc1 (stereo unspecified)	no (0)
COc1cc2c(cc1NC(=O)COC(=O)[C@@H](NS(=O)(=O)c1ccccc1)C(C)C)oc1ccccc12	no (0)
Cc1ccc(-c2nc3ncccn3c2Nc2ccccc2C)o1	no (0)

* * *

The compounds listed here are annotated with their AC50.
# test system: UniProt Q06710
# Sequence (Q06710 whole entry): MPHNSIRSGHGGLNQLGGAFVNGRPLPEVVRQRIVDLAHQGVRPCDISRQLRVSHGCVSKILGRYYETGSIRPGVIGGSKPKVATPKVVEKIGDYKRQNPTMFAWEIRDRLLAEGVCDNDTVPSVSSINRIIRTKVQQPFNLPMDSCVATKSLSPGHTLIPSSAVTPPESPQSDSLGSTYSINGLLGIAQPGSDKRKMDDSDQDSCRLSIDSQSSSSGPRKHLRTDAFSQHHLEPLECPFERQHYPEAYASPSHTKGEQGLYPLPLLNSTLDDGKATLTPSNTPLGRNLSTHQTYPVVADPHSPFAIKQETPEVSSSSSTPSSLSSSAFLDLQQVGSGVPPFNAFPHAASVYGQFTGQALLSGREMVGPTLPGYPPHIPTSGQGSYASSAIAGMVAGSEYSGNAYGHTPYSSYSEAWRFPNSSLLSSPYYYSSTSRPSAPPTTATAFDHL
# protocol notes: inhibitors of PAX8-driven TPO luciferase reporter, dose response, RMG-I cells, cherry-pick (AID 687027);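 further: luciferase reporter driven by Pax8 target thyroperoxidase promoter measured by SteadyGlo luminescence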
# Assay type: functional, cell-based
The source made the active and inactive calls.

structure string	AC50
COc1ccc(S(=O)(=O)Nc2ccc3c(c2)CC(=O)N([C@@H](C)CO)C[C@H](C)[C@@H](CN(C)Cc2ccc(C(F)(F)F)cc2)O3)cc1	6.21 µM (active)
C[C@@H]1CCCCO[C@H](CN(C)Cc2ccc(C(F)(F)F)cc2)[C@H](C)CN([C@@H](C)CO)C(=O)c2cc(NC(=O)Nc3ccc4c(c3)OCO4)ccc2O1	3.34 µM (active)
Cc1cccc(S(=O)(=O)N2CC[C@@H]3[C@H]2c2cc(C4=CCCCC4)ccc2N[C@@H]3CO)c1	10.8 µM (active)
C[C@@H]1CN([C@@H](C)CO)S(=O)(=O)c2ccc(C#Cc3ccccc3F)cc2O[C@@H]1CN(C)C(=O)c1ccc2c(c1)OCO2	13.2 µM (active)
C[C@@H]1CN([C@H](C)CO)C(=O)c2cc(NC(=O)Nc3cccc4ccccc34)ccc2O[C@@H]1CN(C)C(=O)Nc1cccc2ccccc12	6.15 µM (active)
C(=NNc1ccc2ccccc2n1)c1ccccn1	2.95 µM (active)
C[C@@H]1CN([C@H](C)CO)C(=O)c2c(c3ccccc3n2C)-c2ccccc2CO[C@@H]1CN(C)C	66.1 µM (active)
